# Lookup of reported Relative fluorescence intensity keyed by entry
# Test system: HEK293T cells
# measurement notes: Translation efficiency of different capped luciferase mRNAs
# Format: cell-based
# applied conditions: HEK293T, 0.5 μg mRNA per well, 24 hours; proportional to translation efficiency
reported metric: Relative fluorescence intensity

# compound, reported metric, result
records = [
    ("CO[C@@H]1[C@H](OP(=O)(O)OC[C@H]2O[C@@H](n3cnc4c(=O)[nH]c(N)nc43)[C@H](O)[C@@H]2O)[C@@H](COP(=O)(O)OP(=O)(O)OP(=O)(O)OC[C@H]2O[C@@H]([n+]3cn(C)c4c(=O)[nH]c(N)nc43)[C@H](O)[C@]2(F)CN(C)C)O[C@H]1n1cnc2c(N)ncnc21", "Relative fluorescence intensity", 0.81),
    ("CO[C@@H]1[C@H](OP(=O)(O)OC[C@H]2O[C@@H](n3cnc4c(=O)[nH]c(N)nc43)[C@H](O)[C@@H]2O)[C@@H](COP(=O)(O)OP(=O)(O)OP(=O)(O)OC[C@H]2O[C@@H](C[n+]3cn(C)c4c(=O)[nH]c(N)nc43)[C@H](O)[C@@H]2O)O[C@H]1n1cnc2c(N)ncnc21", "Relative fluorescence intensity", 0.77),
    ("CO[C@@H]1[C@H](OP(=O)(O)OC[C@H]2O[C@@H](n3cnc4c(=O)[nH]c(N)nc43)[C@H](O)[C@@H]2O)[C@@H](COP(=O)(O)OP(=O)(O)OP(=O)(O)OC[C@H]2OC([n+]3cn(C)c4c(=O)[nH]c(N)nc43)[C@H](NC(C)=O)[C@@H](O)[C@@H]2O)O[C@H]1n1cnc2c(N)ncnc21 (stereo partly drawn)", "Relative fluorescence intensity", 0.34),
    ("CO[C@@H]1[C@H](OP(=O)(O)OC[C@H]2O[C@@H](n3cnc4c(=O)[nH]c(N)nc43)[C@H](O)[C@@H]2O)[C@@H](COP(=O)(O)OP(=O)(O)OP(=O)(O)OC[C@H]2OC([n+]3cn(C)c4c(=O)[nH]c(N)nc43)[C@H](O)[C@@H](O)[C@@H]2O)O[C@H]1n1cnc2c(N)ncnc21 (stereo partly drawn)", "Relative fluorescence intensity", 0.22),
    ("CO[C@@H]1[C@H](OP(=O)(O)OC[C@H]2O[C@@H](n3cnc4c(=O)[nH]c(N)nc43)[C@H](O)[C@@H]2O)[C@@H](COP(=O)(O)OP(=O)(O)OP(=O)(O)OC[C@H]2O[C@@H]([n+]3cn(C)c4c(=O)[nH]c(N)nc43)[C@H](O)[C@]2(C)NC(C)=O)O[C@H]1n1cnc2c(N)ncnc21", "Relative fluorescence intensity", 1.53),
    ("CO[C@@H]1[C@H](OP(=O)(O)OC[C@H]2O[C@@H](n3cnc4c(=O)[nH]c(N)nc43)[C@H](O)[C@@H]2O)[C@@H](COP(=O)(O)OP(=O)(O)OP(=O)(O)OC[C@H]2O[C@@H]([n+]3cn(C)c4c(=O)[nH]c(N)nc43)[C@H](O)[C@]2(C)C#N)O[C@H]1n1cnc2c(N)ncnc21", "Relative fluorescence intensity", 0.72),
    ("CCO[C@@H]1[C@H](OP(=O)(O)OC[C@H]2O[C@@H](n3cnc4c(=O)[nH]c(N)nc43)[C@H](O)[C@@H]2O)[C@@H](COP(=O)(O)OP(=O)(O)OP(=O)(O)OC[C@H]2O[C@@H]([n+]3cn(C)c4c(=O)[nH]c(N)nc43)[C@H](O)[C@@H]2O)O[C@H]1n1cnc2c(N)ncnc21 [CAP-2′O-ethyl, reference compound]", "Relative fluorescence intensity", 1.13),
    ("CO[C@@H]1[C@H](OP(=O)(O)OC[C@H]2O[C@@H](n3cnc4c(=O)[nH]c(N)nc43)[C@H](O)[C@@H]2O)[C@@H](COP(=O)(O)OP(=O)(O)OP(=O)(O)OC[C@H]2O[C@@H]([n+]3cn(C)c4c(=O)[nH]c(N)nc43)[C@H](O)[C@@H]2O)O[C@H]1n1cnc2c(N)ncnc21 [N-7113, reference compound]", "Relative fluorescence intensity", 1.00),
    ("CO[C@@H]1[C@H](OP(=O)(O)OC[C@H]2O[C@@H](n3cnc4c(=O)[nH]c(N)nc43)[C@H](O)[C@@H]2O)[C@@H](COP(=O)(O)OP(=O)(O)OP(=O)(O)OC[C@@]2(C(F)F)O[C@@H]([n+]3cn(C)c4c(=O)[nH]c(N)nc43)[C@H](O)[C@@H]2O)O[C@H]1n1cnc2c(N)ncnc21", "Relative fluorescence intensity", 1.45),
]

---

# Lookup of reported Multiple of total radiation intensity relative to m6A keyed by entry
# System: BALB/C mice
# measurement notes: In vivo imaging of Fluc-mRNA LNP expression in mice
# applied conditions: 24 h
reported metric: Multiple of total radiation intensity relative to m6A

# compound, target system, numeric value
data = [
    ("CO[C@@H]1[C@H](OP(=O)(O)OC[C@H]2O[C@@H](n3cnc4c(=O)[nH]c(N)nc43)[C@H](O)[C@@H]2O)[C@@H](COP(=O)(O)OP(=O)(O)OP(=O)(O)OC[C@H]2O[C@@H]([n+]3cn(C)c4c(=O)[nH]c(N)nc43)[C@H](O)[C@@H]2C(C)NC(C)=O)O[C@H]1n1cnc2c(N)ncnc21 (some centres unmarked)", "BALB/C mice", 2.6),
    ("CO[C@@H]1[C@H](OP(=O)(O)OC[C@H]2O[C@@H](n3cnc4c(=O)[nH]c(N)nc43)[C@H](O)[C@@H]2O)[C@@H](COP(=O)(O)OP(=O)(O)OP(=O)(O)OC[C@@]2(OC)O[C@@H]([n+]3cn(C)c4c(=O)[nH]c(N)nc43)[C@H](O)[C@@H]2O)O[C@H]1n1cnc2c(N)ncnc21 [compound 5227, reference compound]", "BALB/C mice", 0.8),
    ("CO[C@@H]1[C@H](OP(=O)(O)OC[C@H]2O[C@@H](n3cnc4c(=O)[nH]c(N)nc43)[C@H](O)[C@@H]2O)[C@@H](COP(=O)(O)OP(=O)(O)OP(=O)(O)OC[C@H]2O[C@@H]([n+]3cn(C)c4c(=O)[nH]c(N)nc43)[C@H](O)[C@]2(C)NC(C)=O)O[C@H]1n1cnc2c(N)ncnc21", "BALB/C mice", 2.7),
    ("COC[C@@H]1[C@H](OP(=O)(O)OC[C@H]2O[C@@H](n3cnc4c(=O)[nH]c(N)nc43)[C@H](O)[C@@H]2O)[C@@H](COP(=O)(O)OP(=O)(O)OP(=O)(O)OC[C@H]2O[C@@H]([n+]3cn(C)c4c(=O)[nH]c(N)nc43)[C@H](O)[C@@H]2O)O[C@H]1n1cnc2c(N)ncnc21", "BALB/C mice", 3.1),
    ("CCN(CC)C(=O)[C@H]1[C@@H](O)[C@H]([n+]2cn(C)c3c(=O)[nH]c(N)nc32)O[C@@H]1COP(=O)(O)OP(=O)(O)OP(=O)(O)OC[C@H]1O[C@@H](n2cnc3c(N)ncnc32)[C@H](OC)[C@@H]1OP(=O)(O)OC[C@H]1O[C@@H](n2cnc3c(=O)[nH]c(N)nc32)[C@H](O)[C@@H]1O", "BALB/C mice", 4.2),
    ("CCO[C@@H]1[C@H](OP(=O)(O)OC[C@H]2O[C@@H](n3cnc4c(=O)[nH]c(N)nc43)[C@H](O)[C@@H]2O)[C@@H](COP(=O)(O)OP(=O)(O)OP(=O)(O)OC[C@H]2O[C@@H]([n+]3cn(C)c4c(=O)[nH]c(N)nc43)[C@H](O)[C@@H]2O)O[C@H]1n1cnc2c(N)ncnc21 [CAP-2′O-ethyl, reference compound]", "BALB/C mice", 2.6),
    ("CO[C@@H]1[C@H](OP(=O)(O)OC[C@H]2O[C@@H](n3cnc4c(=O)[nH]c(N)nc43)[C@H](O)[C@@H]2O)[C@@H](COP(=O)(O)OP(=O)(O)OP(=O)(O)OC[C@@]2(C(F)F)O[C@@H]([n+]3cn(C)c4c(=O)[nH]c(N)nc43)[C@H](O)[C@@H]2O)O[C@H]1n1cnc2c(N)ncnc21", "BALB/C mice", 3.3),
    ("CO[C@@H]1[C@H](OP(=O)(O)OC[C@H]2O[C@@H](n3cnc4c(=O)[nH]c(N)nc43)[C@H](O)[C@@H]2O)[C@@H](COP(=O)(O)OP(=O)(O)OP(=O)(O)OC[C@@]2(CF)O[C@@H]([n+]3cn(C)c4c(=O)[nH]c(N)nc43)[C@H](O)[C@@H]2O)O[C@H]1n1cnc2c(N)ncnc21", "BALB/C mice", 3.1),
]

---

# System: BALB/C mice
# measurement notes: In vivo imaging of Fluc-mRNA LNP expression in mice
# applied conditions: 24 h
reported metric: Multiple of total radiation intensity relative to m6A

# molecule, target system, numeric value
data = [
    ("CNc1ncnc2c1ncn2[C@@H]1O[C@H](COP(=O)(O)OP(=O)(O)OP(=O)(O)OC[C@H]2O[C@@H]([n+]3cn(C)c4c(=O)[nH]c(N)nc43)[C@H](O)[C@@H]2O)[C@@H](OP(=O)(O)OC[C@H]2O[C@@H](n3cnc4c(=O)[nH]c(N)nc43)[C@H](O)[C@@H]2O)[C@H]1OC [m6A, reference compound]", "BALB/C mice", 1.0),
    ("CO[C@@H]1[C@H](OP(=O)(O)OC[C@H]2O[C@@H](n3cnc4c(=O)[nH]c(N)nc43)[C@H](O)[C@@H]2O)[C@@H](COP(=O)(O)OP(=O)(O)OP(=O)(O)OC[C@H]2O[C@@H]([n+]3cn(C)c4c(=O)[nH]c(N)nc43)[C@H](O)[C@@H]2C(C)F)O[C@H]1n1cnc2c(N)ncnc21 (some centres unmarked)", "BALB/C mice", 2.8),
    ("CO[C@@H]1[C@H](OP(=O)(O)OC[C@H]2O[C@@H](n3cnc4c(=O)[nH]c(N)nc43)[C@H](O)[C@@H]2O)[C@@H](COP(=O)(O)OP(=O)(O)OP(=O)(O)OC[C@H]2O[C@@H]([n+]3cn(C)c4c(=O)[nH]c(N)nc43)[C@H](O)[C@@H]2O)O[C@H]1n1cnc2c(N)ncnc21 [N-7113, reference compound]", "BALB/C mice", 2.3),
    ("COC[C@]1(COP(=O)(O)OP(=O)(O)OP(=O)(O)OC[C@H]2O[C@@H](n3cnc4c(N)ncnc43)[C@H](OC)[C@@H]2OP(=O)(O)OC[C@H]2O[C@@H](n3cnc4c(=O)[nH]c(N)nc43)[C@H](O)[C@@H]2O)O[C@@H]([n+]2cn(C)c3c(=O)[nH]c(N)nc32)[C@H](O)[C@@H]1O", "BALB/C mice", 3.2),
    ("CO[C@@H]1[C@H](OP(=O)(O)OC[C@H]2O[C@@H](n3cnc4c(=O)[nH]c(N)nc43)[C@H](O)[C@@H]2O)[C@@H](COP(=O)(O)OP(=O)(O)OP(=O)(O)OC[C@H]2OC([n+]3cn(C)c4c(=O)[nH]c(N)nc43)[C@H](O)[C@@H](O)[C@@H]2O)O[C@H]1n1cnc2c(N)ncnc21 (some centres unmarked)", "BALB/C mice", 0.5),
]
